- assay target: Horse liver alcohol dehydrogenase (ADH), E isoenzyme (Equus caballus, UniProt P00327, V208A)
- Sequence (P00327 2-375 V208A): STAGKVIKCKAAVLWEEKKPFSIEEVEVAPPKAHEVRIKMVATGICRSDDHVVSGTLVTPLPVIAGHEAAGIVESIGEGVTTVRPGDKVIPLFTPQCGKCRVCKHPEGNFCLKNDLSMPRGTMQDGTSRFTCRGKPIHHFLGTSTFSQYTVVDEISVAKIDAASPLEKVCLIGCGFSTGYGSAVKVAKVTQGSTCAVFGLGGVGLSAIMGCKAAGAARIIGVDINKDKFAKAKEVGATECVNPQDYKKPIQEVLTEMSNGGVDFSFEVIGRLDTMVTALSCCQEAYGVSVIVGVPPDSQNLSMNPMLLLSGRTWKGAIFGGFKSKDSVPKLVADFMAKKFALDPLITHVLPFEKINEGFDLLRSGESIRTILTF
- test protocol: X-ray crystal structure, […] Å
- Assay type: biochemical
measured parameter: Ki

Given the entry NC(=O)c1ccc[n+]([C@@H]2O[C@H](COP(=O)([O-])OP(=O)(O)OC[C@H]3O[C@@H](n4cnc5c(N)ncnc54)[C@H](O)[C@@H]3O)[C@@H](O)[C@H]2O)c1 , report its measured Ki.
59 µM

---

- assay target: Horse liver alcohol dehydrogenase (ADH), E isoenzyme (Equus caballus, UniProt P00327)
- Sequence (P00327 2-375): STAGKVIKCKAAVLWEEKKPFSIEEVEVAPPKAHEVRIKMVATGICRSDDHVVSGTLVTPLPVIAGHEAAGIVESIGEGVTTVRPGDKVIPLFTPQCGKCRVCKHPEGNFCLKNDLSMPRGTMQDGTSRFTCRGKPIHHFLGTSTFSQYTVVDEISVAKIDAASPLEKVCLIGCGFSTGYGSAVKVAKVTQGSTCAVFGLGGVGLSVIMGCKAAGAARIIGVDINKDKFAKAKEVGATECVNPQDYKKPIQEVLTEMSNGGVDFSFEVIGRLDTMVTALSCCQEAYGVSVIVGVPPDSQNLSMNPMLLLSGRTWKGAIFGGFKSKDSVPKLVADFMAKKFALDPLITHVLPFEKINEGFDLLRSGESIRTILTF
- test protocol: initial velocity and product inhibition kinetics
- Format: biochemical
measured parameter: pKi
Schema: pKi number; meaning minus log10 of the concentration expressed in molar units.

Provide the documented pKi with Horse liver alcohol dehydrogenase (ADH), E isoenzyme (Equus caballus, UniProt P00327) as the system for NC(=O)c1ccc[n+]([C@@H]2O[C@H](COP(=O)([O-])OP(=O)(O)OC[C@H]3O[C@@H](n4cnc5c(N)ncnc54)[C@H](O)[C@@H]3O)[C@@H](O)[C@H]2O)c1
4.70
